test: solvent given as SMILES; details: in CN(C)C=O
Below is a list of entries, each paired with its recorded emission maximum value.
# output: bare number, implied unit nm

Reference set, count: 2
CCCCC1(CCCC)c2cc(C#Cc3ccc4ccc5cccc6ccc3c4c56)ccc2-c2ccc(N(c3ccccc3)c3ccccc3)cc21
565
O=C1C2=C3c4sccc4C=CN3C(=O)C2=C2c3sccc3C=CN12
618

Prompt: In one line, give reported emission maximum of the entry `CCCCN1C(=O)C(=C/C=C/C=C/C=C2N(CCCC)c3ccccc3N2CCCC)C(=O)N(CCCC)C1=S` .
Response: 690

====

test: solvent given as SMILES; conditions: in CO
Reported Property: emission maximum
The number alone won't do; follow it with the unit.

Known emission maximum results, listed for orientation:
CCCCN1c2ccccc2Sc2cc(/C=C/C3=Nc4ccc5ccccc5c4C3(C)C)ccc21
635 nm
COc1ccc2n1[B-](F)(F)[N+]1=C(c3ccccc3)C=CC1=C2c1ccc(C)cc1
550 nm
O=C1c2ccc3c4ccc5c6c(ccc(c7ccc(c2c37)C(=O)N1c1ccncc1)c64)C(=O)N(c1ccncc1)C5=O
569 nm

Kindly review the next compound as well.
Prompt: Please supply the value of reported emission maximum for the item `CN1/C(=C/C=C(/C=C/C2=[N+](C)c3ccccc3C2(C)C)c2cc(F)cc(F)c2)C(C)(C)c2ccccc21`
Response: 655 nm

Origin of values: the Deep4Chem optical property database
